# Tgt: L-lactate dehydrogenase (Plasmodium falciparum (isolate CDC / Honduras))
# Experiment Notes: PfLDH activity inhibition – cell lysate, 3D7 strain, counter-screen for P. falciparum growth inhibition project (AID 2304);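 further: 0% = vehicle and 100% = reference inhibitor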
# Stated Conditions: P. falciparum 3D7 crude extract, LDH APAD/NBT absorbance; at 2 µM; stronger effect = higher value
Measure Name: inhibition (%)

1. CCOC(=O)Cn1ccc2c(NCc3ccccc3)nc(C)nc21 = -1
2. N#Cc1cccc([C@H](O)[C@@H]2CN(CCC3CCCCC3)CC[C@@]2(O)c2ccccc2)c1 = 3
3. N#Cc1ccc2c(c1)CCN(CCC1CCC(NC(=O)/C=C/c3nc4ccccc4s3)CC1)CC2 (stereo unspecified) = -4
4. COc1cccc(C(=O)N2CCN(Cc3cccc(NC(=O)c4cccs4)c3)CC2)c1 = -2
5. CC(C)CNCc1cccc(-c2ccc(CNc3ccc4ncccc4c3)cc2)c1 = -3
6. Cc1cc(CNCCCCCNCc2cccc([N+](=O)[O-])c2)ccc1O = 0
7. CCc1cccc(-n2nc(OCC(=O)NC3CCCC3)c3cccnc32)c1 = -4
8. Nc1nccc2ccc(-c3ccc(Oc4ccccc4)cc3)cc12 = -3
9. COc1ccccc1C(C)NCC(=O)Nc1ccccc1Sc1ccccc1 (stereo unspecified) = -1
10. COc1cccc2cc(C(=O)N[C@@H](CC(C)C)C(=O)Nc3cc(F)ccc3Br)oc12 = -1
11. COc1cc(CNCCCCCCNCc2cc(OC)cc3ccccc23)c2ccccc2c1 = -5
12. Cc1cc(=O)[nH]c(-n2nc(C)cc2NC(=O)CC(c2ccccc2)c2ccccc2)n1 = 2
13. COc1ccc2nc(-c3cc(-c4ccc(NC(=O)CN5CCOCC5)cc4)cnc3N)[nH]c2c1 = -4
14. Cc1ccccc1C1CCN(C2CCC(NC(=O)/C=C/c3c[nH]c4ccccc34)CC2)CC1 (stereo unspecified) = 2
15. O=C(Cc1cnc[nH]1)Nc1cccc(-c2ccc(-c3nc4ccc(C(F)(F)F)cc4[nH]3)s2)c1 = 3
16. Cc1cc(=O)c(-c2ccc(Oc3cccc(OC(F)(F)F)c3)cc2)c(C)[nH]1 = -5
17. COc1ccc(CN2CCC(CNCc3cccc(-c4ccccc4)c3)CC2)cc1 = 2
18. CC(C)Cc1cn(-c2nc(-c3nc4ccccc4[nH]3)cs2)c2ccncc12 = -2
19. O=C(/C=C/c1ccc(Cl)c(Cl)c1)NCCCCCCN1CCN(C(=O)Nc2cc(F)cc(F)c2)CC1 = -1
20. Oc1ccc(CCNCCCCCCNCCc2ccc(Cl)c3ccccc23)cc1O = -4
21. CC1CCC(NCc2ccc3c(CNC4CCC(C)CC4)c(O)ccc3c2O)CC1 (stereo unspecified) = -2

---

# Experiment Notes: human hepatoma cell viability loss – ATP luminescence, cytotoxicity control for P. falciparum antimalarial project, primary screen (AID 2303);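 further: 0% = DMSO wells and 100% = digitonin-killed cells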
# Stated Conditions: HepG2 viability, 24-48 h, at 10 µM
Activity calls are given as the source filed them.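 How the source made its calls: active means inhibition above 50%; inactive means the rest.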
Outcome codes: active, inactive

1) COc1ccc(CNC2CCN(C)CC2)cc1-c1ccc(OC)c(S(=O)(=O)NCc2ccccc2)c1 = inactive
2) FC(F)(F)c1ccc2nc(-c3ccc(-c4cccc(CNCC5CCCO5)c4)cc3)[nH]c2c1 (stereo not given) = inactive
3) CCC(=O)c1cc(C(=O)NCCc2cccc(OC)c2)ccc1OC = inactive
4) COc1cccc(C(=O)Nc2sc3c(c2C(N)=O)CCCC3)c1OC = inactive
5) O=C(Nc1ccc(C(=O)N2CCN(CCN3CCN(c4cccc(C(F)(F)F)c4)CC3)CC2)cc1)c1ccc(OC(F)(F)F)cc1 = inactive
6) Clc1cc(Cl)c2c(c1)C(NCCCNc1nc3ccccc3[nH]1)CCO2 (stereo not given) = inactive
7) Oc1ccc2c(CNCCc3ccccc3)c(O)ccc2c1CNCCc1ccccc1 = inactive
8) COc1ccc(C2CC(=O)C3=C(C2)NC(C)=C(C(=O)OC(C)C)C3c2ccc(O)cc2)cc1OC (stereo not given) = inactive
9) CCNc1cc(C(=O)N[C@@H](Cc2ccccc2)[C@H](O)CNC2(CCC(C)C)CC2)cc(N2CCCCS2(=O)=O)c1 = inactive
10) COc1ccccc1Cc1c(C)nc2nc(N)nc(N)c2c1C = active

---

# Experiment Notes: human hepatoma cell viability loss – ATP luminescence, cytotoxicity control for P. falciparum antimalarial project, primary screen (AID 2303);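 further: 0% = DMSO wells and 100% = digitonin-killed cells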
# Stated Conditions: HepG2 viability, 24-48 h, at 10 µM
Activity calls are given as the source filed them.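 The calls were made as follows: active = inhibition above 50%; inactive = the rest.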
Outcome codes: active, inactive

1) CCCC(C)NC(=O)[C@H]1CNCCN1C(=O)CCCc1ccccc1 (stereo not given in full) = inactive
2) CCN(CCCN1CCCCC1)c1cc(C)nc(Nc2ccc(OC)cc2)n1 = inactive
3) Nc1ncc(-c2ccc(F)cc2)c2ccc(-c3cccc(F)c3)cc12 = inactive
4) CCCC(CC)n1ccc2c3c(N)nc(N)nc3ccc21 (stereo not given) = active
5) COc1cc2nc(Cl)nc(Nc3ccncc3)c2cc1OC = inactive
6) CCCCCCN=C(N)c1ccc2nc(-c3ccc(O)cc3)[nH]c2c1 = inactive
7) O=c1cc(N2CCNCC2)c(Cl)nn1Cc1ccc(NS(=O)(=O)c2ccc(Oc3ccccc3)cc2)cc1 = inactive
8) COc1ccccc1CCNc1ncc(F)c(N[C@@H](Cc2ccccc2)C(=O)NCCc2ccccc2)n1 = inactive
9) CCCCCCCCc1c(C)[nH]c(C)c(Cl)c1=O = inactive
10) CCn1ccc2c(N3CCCC3=O)cc(C(=O)N[C@@H](Cc3ccccc3)[C@H](O)CNCc3cccc(OC)c3)cc21 = inactive

---

# Experiment Notes: antimalarial activity against Dd2 strain (AID 2302);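 further: 0% = DMSO untreated growth and 100% = chloroquine plus artemisinin killed control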
# Stated Conditions: P. falciparum Dd2 in RBCs, LDH growth readout, 72 h; at 2 µM; stronger effect = higher value
If the reported growth inhibition equals or exceeds 70%, assign Criterion met. If not, assign Criterion not met.

1. Nc1nc(N)c2cc(C#Cc3ccc(-c4ccccc4)cc3)ccc2n1 = Criterion not met
2. COc1ccc(-n2ccnc2SCC(=O)Nc2cc(Cl)ccc2OC)c(OC)c1 = Criterion met
3. COC(=O)Cn1c(C2CCN(CC3CCN(C(=O)/C=C/c4ccc(Cl)c(Cl)c4)CC3)CC2)nc2ccccc21 = Criterion not met
4. CC(C)NCc1ccc(-c2ccc(NS(=O)(=O)c3cccc4cccnc34)cc2)cc1 = Criterion not met
5. N#Cc1ccc(-c2ccc3nc(N4CCCN(C5CCC5)CC4)ccc3c2)cc1 = Criterion not met
6. COc1cccc(NC(=O)Nc2ccc(C)c(-c3ccc(C(=O)Nc4ccncc4)cc3)c2)c1 = Criterion not met
7. COc1ccc(NC(=O)Nc2cccc(-c3cccc(-c4nc5ccc(F)cc5[nH]4)c3)c2)cc1 = Criterion not met
8. CCN(CC)C(=NCCCCCCN=C(/N=C(/N)Nc1ccc(C)cc1)N(CC)CC)/N=C(/N)Nc1ccc(C)cc1 = Criterion met
9. O=C(/C=C/c1ccc(Br)cc1)NCCCCCN1CCC(c2c[nH]c3ccccc23)CC1 = Criterion not met
10. O=C(Nc1ccc(-c2ccccc2)cc1)Nc1cccc(OCCN2CCCC2)c1 = Criterion not met
11. COc1cc2nc(N3CCC(NC(=O)c4cccc(N(C)C)c4)CC3)nc(N)c2cc1OC = Criterion not met
12. Cc1cccc2[nH]c(-c3cccc(-c4cccc(CNCc5ccccc5)c4)c3)nc12 = Criterion not met
13. O=C(Nc1cccc(-c2cccc(-c3nc4ccc(C(F)(F)F)cc4[nH]3)c2)c1)c1ccncc1 = Criterion not met
14. O=C(COc1ccccc1Cl)N1CCc2cc3nccc(N4CCN5CCC[C@H]5C4)c3cc21 = Criterion met
15. CCCN(CCC)C(=O)c1cc(C(=O)N[C@@H](Cc2ccccc2)[C@H](O)CNC2CC2)cc(N2CCCCS2(=O)=O)c1 = Criterion met
16. Cc1ccc(F)c(OCC2CCN(c3ncc(C(=O)NC4CC4)cc3Cl)CC2)c1 = Criterion met
17. CN1CCN(CCCN(Cc2csc(-c3ccc(CNCc4ccccc4)cc3)n2)C(=O)Nc2ccc3ccccc3c2)CC1 = Criterion not met
18. COc1ccc2nccc(N3CCC(CCNCc4ccc5c(n4)NC(=O)CO5)CC3)c2c1 = Criterion not met

---

# Experiment Notes: human hepatoma cell viability loss – ATP luminescence, cytotoxicity control for P. falciparum antimalarial project, primary screen (AID 2303);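 further: 0% = DMSO wells and 100% = digitonin-killed cells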
# Stated Conditions: HepG2 viability, 24-48 h, at 10 µM, stronger effect = higher value
Measure Name: inhibition (%)

1) CNC(=O)C1Cc2c([nH]c3ccc(Br)cc23)C2(CCN(CCc3ccccc3)CC2)N1 (centres undefined) = 15
2) O=[N+]([O-])c1cccc(NC(=S)N2CCCN(Cc3ccc(F)cc3F)CC2)c1 = 5
3) CCCCCCNC(=O)C1Cc2c([nH]c3cc(Cl)ccc23)C2(CCN(Cc3ccccc3)CC2)N1 (centres undefined) = 21
4) CN(C)c1ccc(C(c2ccc(N(C)C)cc2)c2cc([N+](=O)[O-])ccc2Cl)cc1 = 0
5) Cc1cc(Nc2ncc3c(n2)N(C2CCC2)CC3)ccc1N1CCN(C)CC1 = 27
6) COc1ccc(CNCc2ccccc2)cc1-c1ccc(S(=O)(=O)NCCN2CCCC2)s1 = 32
7) COc1ccc(F)cc1-c1cccc(CNC2CCN(CC3Cn4c(=O)ccc5ccc(F)c3c54)CC2)c1 (centres undefined) = 46
8) COc1ccc2nccc([C@@H](O)CN3CCC(NCc4ccc5c(n4)NCCC5)CC3)c2c1 = 21
9) C[C@@H]1CN(c2cccc3c2nc(-c2cncc(C#N)c2)n3CCNCc2ccccc2)C[C@H](C)O1 = -5
